Where these numbers come from: patent US7109338B2

Reported Cytotoxicity CC50 HeLa-S3 values follow for various compounds
- System: HeLa-S3 cells
- assay-summary: Cytotoxicity (MTT, without virus), HeLa-S3
- condition: HeLa-S3, no virus, incubated for 4 days
quantity: Cytotoxicity CC50 HeLa-S3

CCn1c2c(c(=O)c3cc(CC(C)C)ccc31)Cc1cc(OC)ccc1-2 [Compound B15]; >2.5 µg/mL
CCn1c2c(c(=O)c3cc(C(C)C)ccc31)Cc1cc(OC)ccc1-2; >2.5 µg/mL
CCn1c2c(c(=O)c3c(C(C)C)c(OC)ccc31)Cc1ccccc1-2; >2.5 µg/mL
CCn1c(-c2ccccc2)cc(=O)c2c(C)c(OCC(C)C)ccc21; >4 µg/mL
COc1ccc2c(c1)Cc1c-2n(C)c2ccc(CC(C)C)cc2c1=O; >2 µg/mL
Cc1cc2c(c(C)c1OCC(C)C)c(=O)c(C)c(-c1ccccc1)n2C; >5 µg/mL
Cc1cc(-c2cc(=O)c3cc(C(C)C)ccc3n2C)ccc1OC(C)C; >5 µg/mL
CCOc1ccc(-c2cc(=O)c3cc(C(C)C)ccc3n2C)cc1C; 5.8 µg/mL
CCc1ccc2c(c1)Cc1c-2n(C)c2ccc(C(C)C)cc2c1=O; >1 µg/mL
CCn1c(-c2cccs2)c(C)c(=O)c2cc(C(C)C)ccc21; >10 µg/mL
CCn1c(-c2ccc(Br)s2)cc(=O)c2cc(C(C)C)ccc21; >5 µg/mL
Cc1c(-c2cccs2)n(C)c2ccc(OCC(C)C)c(C)c2c1=O; >2.5 µg/mL
COc1ccc(-c2c(C)c(=O)c3cc(OCC(C)C)c(C)cc3n2C)cc1C; >4 µg/mL
CCn1c(-c2ccccc2)c(C)c(=O)c2c(C)c(OCC(C)C)ccc21; >5 µg/mL
COc1ccc(-n2c(-c3ccccc3)c(C)c(=O)c3cc(C(C)C)ccc32)cc1; >2.5 µg/mL
Cc1c(OCC(C)C)ccc2c1c(=O)cc(-c1ccccc1)n2C; >5 µg/mL
CCn1c(-c2ccccc2)c(C)c(=O)c2c(Cl)c(OCC(C)C)ccc21; >4 µg/mL
COc1cc2c(=O)c(C)c(-c3ccccc3)n(C)c2cc1C(C)C; >10 µg/mL
